target: Potassium channel subfamily K member 9 (Homo sapiens) (UniProt Q9NPC2); assay: blockers of human TASK-3 (KCNK9) channel – HEK293 cells, thallium flux, primary screen (AID 488922); settings: HEK293 KCNK9, FluxOR thallium flux fluorescence, at 10 µM
Sequence (Q9NPC2 whole entry, looked up): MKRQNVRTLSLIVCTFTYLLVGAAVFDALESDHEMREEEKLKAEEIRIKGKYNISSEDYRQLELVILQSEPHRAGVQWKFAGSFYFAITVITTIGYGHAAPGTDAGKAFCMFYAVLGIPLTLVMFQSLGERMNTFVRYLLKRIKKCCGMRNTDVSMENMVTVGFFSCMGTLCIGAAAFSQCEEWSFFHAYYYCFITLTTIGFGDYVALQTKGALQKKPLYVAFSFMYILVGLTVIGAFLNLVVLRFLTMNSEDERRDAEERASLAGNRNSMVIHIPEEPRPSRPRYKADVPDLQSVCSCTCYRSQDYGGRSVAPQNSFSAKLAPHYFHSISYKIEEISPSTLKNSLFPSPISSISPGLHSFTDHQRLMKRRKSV
The whole screen tested about 310,000 compounds, of which about 3,800 (1.2%) were called active.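 Rule for the calls: active = ratio B-score over 3 SD below the library mean, with starting fluorescence within 5 SD of its mean; inactive = the rest, inconclusive results apart.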 The sample as a whole holds a higher share of actives than the screen did.
Outcome codes: active, inactive

| compound | group label |
| --- | --- |
| COc1cccc(C(O)c2nc3ccccc3n2C)c1 (stereo not given) | inactive |
| CCOC(=O)C1CCc2nc3ccccc3c(=O)n21 (stereo not given) | inactive |
| CCOc1ccc(/C=N/NC(=O)CSc2ccccn2)cc1O | inactive |
| FC(F)(F)c1cc(-c2cccs2)nc(NCc2ccco2)n1 | inactive |
| COC(=O)CCCC1=CC2=C(c3ccccc3)C(=O)C(C)(OC(=O)C3CCCC3)C(=O)C2=CN1c1ccc(OC)cc1 (stereo not given) | inactive |
| CS(=O)(=O)N(CC(=O)Nc1ccc(F)cc1)C1CCCCC1 | inactive |
| Cn1c(C(=O)OC(C(=O)NC2CCCCC2)c2ccccn2)cc2sccc21 (stereo not given) | inactive |
| CC(OC(=O)c1ccc(NS(=O)(=O)c2ccc3[nH]c(=O)[nH]c3c2)cc1)C(=O)Nc1cccc(Cl)c1Cl (stereo not given) | inactive |
| FC(F)(F)c1cc(-c2ccco2)nc(NCc2ccc(Cl)cc2)n1 | active |
| CCCCCC(O)c1cccc(OCc2ccc3ccccc3n2)c1 (stereo not given) | active |
| Cn1ccs/c1=N\S(=O)(=O)c1ccc(C(C)(C)C)cc1 | inactive |
| COc1cc(C(=S)N2CCOCC2)cc(OC)c1OC(=O)c1cc([N+](=O)[O-])cc([N+](=O)[O-])c1 | inactive |
| CCCOc1ccc2c3c(c(=O)oc2c1OCCC)CCC3 | active |
| COc1ccc(NC(=O)C2CCC(CNC(=O)[C@@H]3Cc4ccccc4CN3)CC2)cc1 (stereo not given in full) | inactive |
| CCOC(=O)C(C)Sc1nc2ccccc2c(=O)n1CC1CCCCC1 (stereo not given) | active |
| CCN(/N=C/c1ccc(N(C)C)cc1)c1nc2ccccc2[nH]1 | inactive |
| CCOc1ccc(/C=N/NC(=O)C(C)Sc2ccccn2)cc1OCC (stereo not given) | inactive |
| CCOC(=O)CSc1nc2c(c(=O)n(C)c(=O)n2C)n1Cc1ccccc1F | inactive |
| CC1=NN(C(=O)Cc2ccc(C)cc2)C(O)(c2cccnc2)C1 (stereo not given) | inactive |
| CC12CCC(C(=O)N(c3cccc(Cl)c3)C1=O)C2(C)C (stereo not given) | inactive |
| CCC1CCC/C1=N\NC(=O)c1ccc(Cl)cc1 (stereo not given) | inactive |
| Oc1ccc(/C=N/N(Cc2ccccc2)c2ccccc2)cc1 | active |
| CCOn1c(SC(C)C)nc2ccccc2c1=O | inactive |
| O=C(Oc1ccc(Br)cc1C(=S)N1CCOCC1)c1cccc([N+](=O)[O-])c1 | active |
| O=[N+]([O-])c1ccc2c(c1)Nc1nc3ccccc3nc1N2 | inactive |

* * *

target: Potassium channel subfamily K member 9 (Homo sapiens) (UniProt Q9NPC2); test: blockers of human TASK-3 (KCNK9) channel – HEK293 cells, thallium flux, primary screen (AID 488922); details: HEK293 KCNK9, FluxOR thallium flux fluorescence, at 10 µM
About 3,800 (1.2%) of roughly 310,000 compounds were called active.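 How the source made its calls: active means ratio B-score over 3 SD below the library mean, with starting fluorescence within 5 SD of its mean; inactive means the rest, inconclusive results apart.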 This is one part of a sample in which actives are shown more often than they occur.
Outcome codes: Yes = active, No = inactive

| molecule | group label |
| --- | --- |
| Cn1cc(CCC(=O)NCc2ccc3c(c2)OCO3)c2ccccc21 | No |
| COC(=O)c1cn(CC(=O)NCc2cccs2)c2ccccc12 | No |
| O=C(COC(=O)c1ncc(Cl)c(Cl)c1Cl)NC1CCS(=O)(=O)C1 (configuration not stated) | No |
| Cc1c(C(=O)N2CCCc3ccccc32)oc2ccccc12 | No |
| Cc1ccc(C2NC(C(=O)O)CS2)cc1 (configuration not stated) | No |
| O=C(Nc1ccc2c(c1)OCCO2)c1ccoc1 | No |
| CCc1cccc(C)c1N(C(=O)Cn1c(CO)nc2ccccc21)C(C)COC (configuration not stated) | Yes |

* * *

molecular target: Potassium channel subfamily K member 9 (Homo sapiens) (UniProt Q9NPC2); assay: blockers of human TASK-3 (KCNK9) channel – HEK293 cells, thallium flux, primary screen (AID 488922); conditions: HEK293 KCNK9, FluxOR thallium flux fluorescence, at 10 µM
Among all 310,000 compounds or so, about 3,800 (1.2%) were called active.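 The calls were made as follows: active = ratio B-score over 3 SD below the library mean, with starting fluorescence within 5 SD of its mean; inactive = the rest, inconclusive results apart.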 Many of the other results were omitted from the sample, so actives are more common in it than they were.
Outcome codes: active, inactive

| compound | group label |
| --- | --- |
| O=C(CSc1nnc(-c2cccnc2)n1Cc1ccco1)c1ccc(Cl)c(Cl)c1 | inactive |
| C[C@H](NC(=O)c1nc[nH]c1C(=O)NCC(=O)OC(C)(C)C)C(=O)OCc1ccccc1 | inactive |
| Cc1csc(/N=C/N(C)C)c1C#N | inactive |
| Cc1nn(-c2ccccc2)c(Cl)c1/C=N/NC(=O)c1nn(C)cc1[N+](=O)[O-] | inactive |
| O=C(NCCc1ccc(Cl)cc1)C1CCCN1C(=O)NCc1ccccc1 (configuration not stated) | inactive |
| Cc1cc(CNCc2c(C(=O)N(C)Cc3ccccc3)nc3ccccn23)nn1C | inactive |
| CC(=O)N[C@@H](C)C(=O)N1CCC(n2nccc2NC(=O)CCCc2ccccc2)CC1 | inactive |
| O=C(CCl)N(Cc1cccc([N+](=O)[O-])c1)c1cccc(Cl)c1 | inactive |
| Nc1cc(C(F)(F)F)ccc1N1CCOCC1 | inactive |
| CN1C2CCC1/C(=C\c1ccccc1Cl)C(=O)/C2=C\c1ccccc1Cl | active |
| O=C(C1CCN(C2CCN(Cc3ccc4cc(F)ccc4n3)CC2)CC1)N1CCCC1 | inactive |
| O=C(Nc1ccc(Cl)c(Cl)c1)N1CC=C(c2ccccc2)CC1 | active |
| O=C(Nc1ccc(F)cc1)C1CCCN(S(=O)(=O)c2ccc(-n3cnnn3)cc2)C1 (configuration not stated) | inactive |
| O=C(CN1C(=O)S/C(=C\c2ccccc2Cl)C1=O)NC1C=CS(=O)(=O)C1 (configuration not stated) | inactive |
| Cc1ccc(-n2nc(-c3ccco3)cc2C(=O)NCc2cccnc2)cc1 | inactive |
| COc1ccc(C(CCN(Cc2ccc(OC)c(OC)c2)C(=O)CCl)c2ccccc2)cc1 (configuration not stated) | active |
| O=c1[nH]c(CSc2ncc(-c3ccc(F)cc3)n2Cc2ccco2)nc2ccccc12 | inactive |
| COc1cc(C(=O)NCC(=O)N2CC=C(c3ccccc3)CC2)cc(OC)c1OC | inactive |
| CC(C)CCNC(=O)CN(C(=O)Cn1nnc(-c2ccc(F)cc2)n1)C1CCCC1 | inactive |
| CN(Cc1ccccc1)C(=O)COC(=O)c1ccccc1Nc1ccccc1 | inactive |
| O=C(CSc1ncnc2scc(-c3ccccc3)c12)NCc1ccc2c(c1)OCO2 | active |
| CCNc1nc(-c2cc3ccccc3o2)cs1 | inactive |
| O=C(CN1CCCCCC1)NCCN1C(=O)S/C(=C\c2ccccc2Cl)C1=O | inactive |
| COc1ccc(S(=O)(=O)NCCc2c[nH]c3ccccc23)cc1OC | inactive |
| CCCCn1c(N)c(N(CC(C)C)C(=O)c2ccc(Br)o2)c(=O)[nH]c1=O | inactive |
| O=C(CN1CCN(c2nc(-c3ccccc3)cs2)CC1)NCc1ccc2c(c1)OCO2 | inactive |
| CCOc1ccc(CN(Cc2ccco2)C(c2cccs2)c2nnnn2C(C)(C)C)cc1 (configuration not stated) | active |
| O=C(Nc1ccccc1)N1CCN(C(=O)Nc2ccccc2)CC1 | inactive |
| COc1ccc(COC(=O)NC(C(=O)O)c2ccccc2)cc1 (configuration not stated) | inactive |
| Cc1ccc(C(=O)Cc2nnc(C)s2)cc1 | inactive |
| CC(C)CC(=O)Nc1ccc(Cc2ccncc2)cc1 | inactive |
| CN(C(=O)CCN1C(=O)/C(=C/c2ccccc2F)SC1=S)C1CCS(=O)(=O)C1 (configuration not stated) | inactive |
